Reference source: ChEMBL document CHEMBL3988442

- Organism: Homo sapiens
- test-name: To identify inhibition of the IFN signalling (Jak-Stat) pathway via expression of an eGFP reporter gene under the control of an IFN-stimulated response element (ISRE) containing MxA promoter.
- Type: functional
- Parameters: scale not given: direction of the effect not stated beside the values
- condition-description: 30 µM
Measured Percent Effect, listed per entry for reference.
Please state the number and follow it with the unit.

Using the record for CCOc1ccc(-c2ccnc(CC)n2)cc1C(=O)O , state its measured Percent Effect. -11.8%

Using the record for O=C(c1ccc(F)cc1)N1C[C@@H]2OCCN(c3ncccn3)[C@@H]2C1 , state its measured Percent Effect. -2.35%

Using the record for CCc1nc(CC(=O)N2CCOCC2c2ncon2)cs1 (stereo not drawn) , state its measured Percent Effect. -8.37%

Using the record for O=C(Nc1cn[nH]c1)c1ccc(O)nc1 , state its measured Percent Effect. 1.45%

Using the record for O=C(C(CNCc1ccsc1)c1ccccc1)N1CCOCC1 (stereo not drawn) , state its measured Percent Effect. -32.4%

Using the record for CCc1nc(C2CCCN(C(=O)c3cccc4c3ccn4C)C2)no1 (stereo not drawn) , state its measured Percent Effect. 17.1%

Using the record for Cc1cccc(C(=O)N2C[C@@H]3OCCN(c4ncccn4)[C@@H]3C2)n1 , state its measured Percent Effect. -6.79%

Using the record for CN(Cc1cnn(C)c1)C(=O)NC1CCN(Cc2ccccn2)CC1 , state its measured Percent Effect. 15.9%

Using the record for CS(=O)(=O)NCCCN1CCCC1c1ccccc1 (stereo not drawn) , state its measured Percent Effect. -31.1%

Using the record for CC(CNC(=O)N1CCN(c2cnccn2)CC1)Cc1cccs1 (stereo not drawn) , state its measured Percent Effect. -1.65%
